test system: QSK; conditions: concentration: 1 μM, replicates: in singlicate; n = 1;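 also: KINOMEscan kinase panel screen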
%Inh of 9% or higher: Met. Under 9%: Not met.

Ask | Evaluate COc1ccc(Nc2nccc(N3CCC(NC(=O)Nc4ccc5c(c4)OCO5)C3)n2)cc1 (stereo not drawn) : %Inh at minimum 9%?
Reply | Not met

Ask | Is it the case that Cn1cc(-c2ccc3c(c2)CCN3C(=O)Cc2cccc(C(F)(F)F)c2)c2c(N)ncnc21 has %Inh reaching or exceeding 9%?
Reply | Not met

Ask | Is it the case that Cl.c1ccc(Cn2ncc3cc(Nc4ncnc5ccccc45)ccc32)cc1 has %Inh reaching or exceeding 9%?
Reply | Met

Ask | Does %Inh meet or surpass 9% for C[C@H]1CC[C@@H](C(=O)Nc2ccccc2)CN1c1cc(-c2ccc3c(N)n[nH]c3c2)nc(N)n1 ?
Reply | Met

Ask | For this compound, is measured %Inh 9% or higher? CCC(CC)(CC)n1cnc2c(N)ncnc21
Reply | Met

Ask | Check this compound for %Inh at or above 9%: O=C(Nc1ccccc1F)NC1CCN(c2ccnc(Nc3ccc(F)cc3)n2)C1 (stereo not drawn)
Reply | Met

Ask | Quick check: does Cn1ccc2ncnc(Nc3ccc(Oc4cccc(Cl)c4)c(Cl)c3)c21 have %Inh greater than or equal to 9%?
Reply | Not met

Ask | Given the entry CC(C)(C)OC(=O)NC1CCCN(c2cc(-c3ccc4c(N)n[nH]c4c3)nc(N)n2)C1 (stereo not drawn) , answer whether its %Inh meets or surpasses 9%.
Reply | Not met

Ask | Reported %Inh at or above 9%? Nc1n[nH]c2nnc(-c3ccccc3)cc12
Reply | Not met

Ask | Does %Inh meet or surpass 9% for CCCc1ccc(S(=O)(=O)NC2CCN(c3ccnc(Nc4ccc(OC)cc4)n3)C2)cc1 (stereo not drawn) ?
Reply | Not met

Ask | Check if %Inh >= 9% (inclusive). Item: O=C(Nc1n[nH]c2nc(-c3ccco3)c(Br)cc12)c1ccc(CN2CCCC2)cc1.O=C(O)[C@H](O)[C@@H](O)C(=O)O
Reply | Not met

Ask | Decide: %Inh of CC(=O)Nc1n[nH]c2ncc(-c3ccccc3)cc12 >= 9%?
Reply | Met

Ask | Quick check, %Inh >= 9%? FC(F)(F)c1cc(Nc2nccc(-c3c(-c4ccc(Cl)cc4)nn4ncccc34)n2)ccc1Cl
Reply | Not met

Ask | Does Cc1ccc(NC(=O)c2cccc(C#N)c2)cc1-c1ccc(C(=O)Nc2ccncc2)cc1 have a reported %Inh of at least 9%?
Reply | Not met

Ask | Determine whether this compound has %Inh no lower than 9%: Nc1nc(-c2ccccn2)c(-c2ccnc3ccccc23)s1
Reply | Not met

Ask | Item O=C(Nc1ccccc1)Nc1ccc(Oc2ccc3nccn3n2)cc1 with %Inh of 9% or above?
Reply | Not met

Ask | # bool: %Inh of Cl.Fc1ccccc1COc1ccc(Nc2ncnc3ccc(-c4nnc(C(F)(F)F)o4)cc23)cc1Cl >= 9%
Reply | Not met

The measurements presented in this section are drawn from paper PMC5540273.
